So I've got a bunch of binders here, and I need their glycan array binding signal (z-score) values.
# experimental_target: Neu5Ac(a2-6)GlcNAc(b1-4)GlcNAc
# protocol_notes: glycan array binding signal (z-score within array); higher = stronger binding
# experimental_setup: glycan notation: IUPAC condensed, linker removed
The entries come from a sample that favours the strongest signals as a whole.
Numbers only.

Guide cases for glycan array binding signal (z-score), answers given:
binder: HPA (Helix pomatia), Q2F1K8 (protein) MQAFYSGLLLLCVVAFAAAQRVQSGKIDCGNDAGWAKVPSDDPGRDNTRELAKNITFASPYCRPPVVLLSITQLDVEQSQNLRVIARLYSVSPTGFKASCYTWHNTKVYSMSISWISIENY
glycan array binding signal (z-score): -0.359
//
binder: rCnSL-A (Clitocybe nebularis) (protein) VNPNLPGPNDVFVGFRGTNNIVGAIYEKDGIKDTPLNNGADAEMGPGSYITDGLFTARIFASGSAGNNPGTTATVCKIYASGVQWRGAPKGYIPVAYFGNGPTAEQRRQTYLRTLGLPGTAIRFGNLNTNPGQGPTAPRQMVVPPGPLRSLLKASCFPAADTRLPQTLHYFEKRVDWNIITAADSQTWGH
glycan array binding signal (z-score): -0.287

Alright, here's another binder for you.
Please supply the value of reported glycan array binding signal (z-score) for the item Gal 1 (Mus musculus), P16045 (protein) MACGLVASNLNLKPGECLKVRGEVASDAKSFVLNLGKDSNNLCLHFNPRFNAHGDANTIVCNTKEDGTWGTEHREPAFPFQPGSITEVCITFDQADLTIKLPDGHEFKFPNRLNMEAINYMAADGDFKIKCVAFE
-0.34
